# experimental.details: Clearance in rat at 10 mg/kg, po daily for 3 days measured on day 3 post last dose
# Assay type: ADME, organism-based
# experimental.setup: in vivo
Listed compounds paired with reported CL/F
observable: CL/F

1. CC1=C(c2cccc(O)c2)[C@H](c2ccc(OCCN3CC(CF)C3)cc2)Oc2ccc(O)cc21 : > 60 mL/min/kg
2. CC1=C(c2cccc(O)c2)[C@H](c2ccc(OC[C@H](C)N3CC[C@@H](C)C3)cc2)Oc2ccc(O)cc21 : > 60 mL/min/kg
3. CC1=C(c2ccc(F)cc2)[C@H](c2ccc(OCCN3CC(CF)C3)cc2)Oc2ccc(O)cc21 : 36 mL/min/kg

* * *

# experimental.details: AUC (0 to 24 hrs) in nude mouse xenografted with tamoxifen-resistant human MCF7 cells at 100 mg/kg, po daily for 28 days measured on day 28 post last dose
# Assay type: ADME, organism-based
# Set-up: time < 24 hr, dose 100 mg/kg, route oral
# experimental.setup: in vivo
observable: AUC at 24 h (ng·h/mL)

1. CC1=C(c2cccc(O)c2)[C@H](c2ccc(OCCN3CC(CF)C3)cc2)Oc2ccc(O)cc21 : 6900
2. CC1=C(c2ccc(F)cc2)[C@H](c2ccc(OCCN3CC(CF)C3)cc2)Oc2ccc(O)cc21 : 21000
3. CC1=C(c2cccc(O)c2)[C@H](c2ccc(OC[C@H](C)N3CC[C@@H](C)C3)cc2)Oc2ccc(O)cc21 : 12000

* * *

# assayed.system: Cytochrome P450 2C19 (Homo sapiens, UniProt P33261)
# Sequence (P33261 whole entry): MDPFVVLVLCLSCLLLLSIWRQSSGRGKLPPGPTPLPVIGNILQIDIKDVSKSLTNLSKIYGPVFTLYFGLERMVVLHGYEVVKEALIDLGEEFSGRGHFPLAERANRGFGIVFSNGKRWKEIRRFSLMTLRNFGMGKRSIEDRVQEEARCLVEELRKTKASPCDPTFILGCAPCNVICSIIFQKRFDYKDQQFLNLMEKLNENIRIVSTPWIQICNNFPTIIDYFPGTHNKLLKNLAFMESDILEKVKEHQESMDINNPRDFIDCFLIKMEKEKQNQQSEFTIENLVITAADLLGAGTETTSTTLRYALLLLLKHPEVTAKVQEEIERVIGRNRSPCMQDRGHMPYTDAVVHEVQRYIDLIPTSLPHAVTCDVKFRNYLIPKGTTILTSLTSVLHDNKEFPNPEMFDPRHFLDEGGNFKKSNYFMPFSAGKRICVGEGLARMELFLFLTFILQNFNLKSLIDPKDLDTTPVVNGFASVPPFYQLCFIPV
observable: IC50

1. CC1=C(c2cccc(O)c2)[C@H](c2ccc(OCCN3CC(CF)C3)cc2)Oc2ccc(O)cc21 : > 10 µM

* * *

# experimental.details: AUC in rat at 10 mg/kg, po daily for 3 days measured on day 3 post last dose
# Format: ADME, organism-based
# experimental.setup: in vivo
observable: AUC at 72 h (ng·h/mL)

1. CC1=C(c2ccc(F)cc2)[C@H](c2ccc(OCCN3CC(CF)C3)cc2)Oc2ccc(O)cc21 : 1900
2. CC1=C(c2cccc(O)c2)[C@H](c2ccc(OCCN3CC(CF)C3)cc2)Oc2ccc(O)cc21 : 160

* * *

# assayed.system: Estrogen receptor (Homo sapiens, UniProt P03372)
# Sequence (P03372 whole entry): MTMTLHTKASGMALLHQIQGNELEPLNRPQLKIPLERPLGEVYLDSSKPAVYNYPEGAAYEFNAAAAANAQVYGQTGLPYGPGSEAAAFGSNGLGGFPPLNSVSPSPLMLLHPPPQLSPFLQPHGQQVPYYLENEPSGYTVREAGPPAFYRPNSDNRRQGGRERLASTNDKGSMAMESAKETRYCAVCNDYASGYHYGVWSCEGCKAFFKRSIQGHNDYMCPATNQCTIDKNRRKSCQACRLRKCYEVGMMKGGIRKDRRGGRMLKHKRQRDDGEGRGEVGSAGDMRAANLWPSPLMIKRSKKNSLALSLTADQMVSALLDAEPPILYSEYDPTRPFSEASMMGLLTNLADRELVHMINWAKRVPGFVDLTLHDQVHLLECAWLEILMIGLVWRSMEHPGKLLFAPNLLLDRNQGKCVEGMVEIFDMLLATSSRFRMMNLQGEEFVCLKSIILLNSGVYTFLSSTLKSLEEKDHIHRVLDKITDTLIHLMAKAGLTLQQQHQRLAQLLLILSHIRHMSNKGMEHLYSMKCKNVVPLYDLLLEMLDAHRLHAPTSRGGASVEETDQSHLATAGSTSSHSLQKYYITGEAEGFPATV
# experimental.details: Induction of ERalpha degradation in human MCF7 cells assessed as decrease in ERalpha protein level after 4 hrs by InCell Western assay
Listed compounds paired with reported IC50
observable: IC50

1. CC1=C(c2cccc(O)c2)C(c2ccc(OCCN3CC[C@@H](C#N)C3)cc2)Oc2ccc(O)cc21 (some centres not stated) : 0.8 nM
2. CC1=C(c2cccc(O)c2)C(c2ccc(OCCN3CC[C@@H](C(F)F)C3)cc2)Oc2ccc(O)cc21 (some centres not stated) : 0.2 nM
3. CC1=C(c2cccc(O)c2)C(c2ccc(OCCN3CC[C@@H](CF)C3)cc2)Oc2ccc(O)cc21 (some centres not stated) : 0.1 nM
4. CC1=C(c2cccc(O)c2)C(c2ccc(OCCN3CCC[C@H]3CF)cc2)Oc2ccc(O)cc21 (some centres not stated) : 0.2 nM
5. CC1=C(c2cccc(O)c2)C(c2ccc(OC[C@H](C)N3CC(CF)C3)cc2)Oc2ccc(O)cc21 (some centres not stated) : 0.2 nM
6. CC1=C(c2ccc(C#N)cc2)C(c2ccc(OCCN3CC(CF)C3)cc2)Oc2ccc(O)cc21 (configuration not stated) : 0.2 nM
7. COC[C@@H]1CCN(CCOc2ccc(C3Oc4ccc(O)cc4C(C)=C3c3cccc(O)c3)cc2)C1 (some centres not stated) : 0.3 nM

Values from ChEMBL document CHEMBL4330143
